Assignment: determine reported pIC50 for the given compounds.
# system: human CCR6 (Homo sapiens)
# Sequence (P51684 1-374): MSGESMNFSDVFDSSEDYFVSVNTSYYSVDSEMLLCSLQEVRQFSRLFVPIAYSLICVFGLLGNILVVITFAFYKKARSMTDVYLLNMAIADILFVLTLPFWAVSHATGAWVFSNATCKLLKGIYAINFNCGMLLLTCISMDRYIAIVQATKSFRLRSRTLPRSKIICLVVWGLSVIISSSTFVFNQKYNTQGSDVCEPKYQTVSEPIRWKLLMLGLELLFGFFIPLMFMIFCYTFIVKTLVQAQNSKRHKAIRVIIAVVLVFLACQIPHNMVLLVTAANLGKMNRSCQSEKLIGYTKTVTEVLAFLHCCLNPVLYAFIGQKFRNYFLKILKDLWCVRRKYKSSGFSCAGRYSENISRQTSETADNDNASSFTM
# procedure-details: Migration assay (chemotaxis, ChemoTX)
# measurement-context: hCCR6-transfected Ba/F3 cells in human serum, migration to recombinant human CCL20 10 nM, 37° C. 45 minutes; read-out: Potency (IC50 value in the migration assay)
pIC50: −log10 of the molar value.

O=C1C[C@H](Nc2ccc(-c3ccc(S(=O)(=O)N4CC[C@@H](Nc5ccc(C(F)(F)F)cn5)[C@@H](O)C4)cc3)cn2)CN1: > 9.00
O=S(=O)(c1ccc(-c2ccc(NC3CCC3)nc2)cc1)N1CC[C@@H](Nc2ccc(C(F)(F)F)cn2)[C@@H](O)C1: 8.00 to 9.00
CN(C)CCN(C)c1ccc(-c2ccc(S(=O)(=O)N3CC[C@@H](Nc4ccc(C(F)(F)F)cn4)[C@@H](O)C3)cc2)cn1: 6.00 to 8.00

Lab note: each compound below needs its pIC50 filled in.
1. Cc1cnc(-c2cc(-c3ccc(S(=O)(=O)N4CC[C@@H](Nc5ccc(C(F)(F)F)cn5)[C@@H](O)C4)cc3)ccn2)o1
2. O=c1[nH]c2ccc(-c3ccc(S(=O)(=O)N4CC[C@@H](Nc5ccc(C(F)(F)F)cn5)[C@@H](O)C4)cc3)cc2[nH]1
3. Nc1nnc(-c2cc(-c3ccc(S(=O)(=O)N4CC[C@@H](Nc5ccc(C(F)(F)F)cn5)[C@@H](O)C4)cc3)ccn2)o1

1: > 9.00; 2: > 9.00; 3: > 9.00
